# assay_summary: in vitro
# run_conditions: dog, hepatocytes
# Description: Intrinsic clearance in dog hepatocytes
readout_label: CLint scaled (mL/min/kg)
The reply should be a number in mL/min/kg, with the unit left off.

Name the recorded CLint scaled for `C[C@@H]1COCCN1c1cc(N=[S@@](C)(=O)C2CC2)nc(-c2ccnc(N)c2)n1` .
6

====

# study_system: Voltage-gated inwardly rectifying potassium channel KCNH2 (Homo sapiens, UniProt Q12809)
# Sequence (Q12809 whole entry): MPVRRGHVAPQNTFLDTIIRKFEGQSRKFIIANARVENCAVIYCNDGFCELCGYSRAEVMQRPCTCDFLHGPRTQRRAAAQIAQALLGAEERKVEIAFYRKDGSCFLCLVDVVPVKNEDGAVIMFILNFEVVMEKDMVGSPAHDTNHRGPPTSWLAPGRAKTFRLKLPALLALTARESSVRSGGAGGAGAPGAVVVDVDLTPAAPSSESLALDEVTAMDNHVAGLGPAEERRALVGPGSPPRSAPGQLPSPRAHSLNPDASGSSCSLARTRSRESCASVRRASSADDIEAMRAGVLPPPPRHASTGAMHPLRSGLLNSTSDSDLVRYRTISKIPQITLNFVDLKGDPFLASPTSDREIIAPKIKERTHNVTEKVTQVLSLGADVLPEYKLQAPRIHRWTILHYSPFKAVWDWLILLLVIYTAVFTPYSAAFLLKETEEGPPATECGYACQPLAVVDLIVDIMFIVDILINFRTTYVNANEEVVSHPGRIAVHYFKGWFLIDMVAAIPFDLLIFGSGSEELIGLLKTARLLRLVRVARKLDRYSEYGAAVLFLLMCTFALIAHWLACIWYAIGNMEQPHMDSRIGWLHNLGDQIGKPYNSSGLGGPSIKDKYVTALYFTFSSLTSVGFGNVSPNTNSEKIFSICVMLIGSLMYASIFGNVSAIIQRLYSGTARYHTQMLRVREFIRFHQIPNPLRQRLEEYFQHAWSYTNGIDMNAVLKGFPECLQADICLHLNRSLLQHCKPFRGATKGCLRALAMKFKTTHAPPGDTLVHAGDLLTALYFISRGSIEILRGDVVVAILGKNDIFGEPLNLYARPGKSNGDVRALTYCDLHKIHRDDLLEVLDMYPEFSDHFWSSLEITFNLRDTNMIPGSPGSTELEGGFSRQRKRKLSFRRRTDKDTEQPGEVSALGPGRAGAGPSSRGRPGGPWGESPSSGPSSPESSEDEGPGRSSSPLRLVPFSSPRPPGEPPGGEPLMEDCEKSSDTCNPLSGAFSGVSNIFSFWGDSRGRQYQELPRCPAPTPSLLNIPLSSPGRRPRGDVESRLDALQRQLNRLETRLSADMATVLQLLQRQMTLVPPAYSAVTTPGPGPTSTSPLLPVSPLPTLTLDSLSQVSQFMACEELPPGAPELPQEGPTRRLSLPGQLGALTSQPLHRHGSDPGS
pIC50: −log10 of the molar value.
readout_label: pIC50

For the record `C[C@@H]1COCCN1c1cc(N=[S@@](C)(=O)C2CC2)nc(-c2ccnc(N)c2)n1` , what value of pIC50 is listed for Voltage-gated inwardly rectifying potassium channel KCNH2 (Homo sapiens, UniProt Q12809)?
< 5.00
